Listed here are compounds together with their documented % Axl tyrosine kinase inhibition at 1 μM concentration.
Biological target: recombinant Axl tyrosine kinase (Homo sapiens)
Construct: encompassing amino acids 473 to 894 of Axl; GST (N); made in house; host or cells: SF126 insect cells
Sequence (P30530 473-894): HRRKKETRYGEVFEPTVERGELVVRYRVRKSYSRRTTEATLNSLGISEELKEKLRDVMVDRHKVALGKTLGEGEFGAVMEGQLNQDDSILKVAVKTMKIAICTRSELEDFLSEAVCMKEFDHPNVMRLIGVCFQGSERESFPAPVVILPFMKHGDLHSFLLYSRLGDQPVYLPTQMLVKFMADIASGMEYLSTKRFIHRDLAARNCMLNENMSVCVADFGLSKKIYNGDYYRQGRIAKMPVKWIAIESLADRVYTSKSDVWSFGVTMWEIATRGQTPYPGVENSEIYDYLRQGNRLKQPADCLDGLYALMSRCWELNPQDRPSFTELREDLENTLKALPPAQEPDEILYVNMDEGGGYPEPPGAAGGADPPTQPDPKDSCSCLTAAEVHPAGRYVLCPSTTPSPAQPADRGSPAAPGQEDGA
Assay: In vitro Axl kinase assay (AlphaScreen), Test (a)
Assay type: biochemical
Settings: test compound at 1 μM; first value quoted
Response body: numeric value in %, unit text excluded.

N#Cc1cccc(-c2cnc(N)c(-c3nc4cnccc4o3)c2)c1 [Example 8A.11]    89.6
CNC(=O)c1nn(C2CCN(C)CC2)cc1-c1cnc(N)c(-c2nc3ccccc3o2)c1 [Example 41.33]    99.6
CN1CCN(C(=O)c2ccc(-c3cnc(N)c(-c4nc5ncccc5o4)c3)cc2)CC1 [Example 45B.2]    96.1
COc1cc(-c2cnc(N)c(-c3nc4ncccc4o3)c2)ccc1OCCCN1CCOCC1 [Example 43C.17]    93.5
CC(=O)NCC(=O)N1CCC(n2cc(-c3cnc(N)c(-c4nc5ncccc5o4)c3)cn2)CC1 [Example 59.3]    98.9

Problem: Tell me the measured % Axl tyrosine kinase inhibition at 1 μM concentration of CNC(=O)CN1CCC(n2cc(-c3cnc(N)c(-c4nc5ncccc5o4)c3)cn2)CC1 [Example 53.2] , please.
Solution: 97.8

Problem: Find the recorded % Axl tyrosine kinase inhibition at 1 μM concentration belonging to Nc1ncc(-c2cccc(CN3CCOCC3)c2)cc1-c1nc2ccccc2o1 [Example 2.22] and report it.
Solution: 97.9

Problem: Return reported % Axl tyrosine kinase inhibition at 1 μM concentration; argument: Nc1ncc(-c2cnn(C3CCCNC3)c2)cc1-c1nc2ccccc2o1 (stereo not drawn) [Example 29.6]
Solution: 99.9

Origin of measurements: patent US8017611B2
